- System: Matrix metalloproteinase-9 (Homo sapiens)
- Sequence (P14780 whole entry): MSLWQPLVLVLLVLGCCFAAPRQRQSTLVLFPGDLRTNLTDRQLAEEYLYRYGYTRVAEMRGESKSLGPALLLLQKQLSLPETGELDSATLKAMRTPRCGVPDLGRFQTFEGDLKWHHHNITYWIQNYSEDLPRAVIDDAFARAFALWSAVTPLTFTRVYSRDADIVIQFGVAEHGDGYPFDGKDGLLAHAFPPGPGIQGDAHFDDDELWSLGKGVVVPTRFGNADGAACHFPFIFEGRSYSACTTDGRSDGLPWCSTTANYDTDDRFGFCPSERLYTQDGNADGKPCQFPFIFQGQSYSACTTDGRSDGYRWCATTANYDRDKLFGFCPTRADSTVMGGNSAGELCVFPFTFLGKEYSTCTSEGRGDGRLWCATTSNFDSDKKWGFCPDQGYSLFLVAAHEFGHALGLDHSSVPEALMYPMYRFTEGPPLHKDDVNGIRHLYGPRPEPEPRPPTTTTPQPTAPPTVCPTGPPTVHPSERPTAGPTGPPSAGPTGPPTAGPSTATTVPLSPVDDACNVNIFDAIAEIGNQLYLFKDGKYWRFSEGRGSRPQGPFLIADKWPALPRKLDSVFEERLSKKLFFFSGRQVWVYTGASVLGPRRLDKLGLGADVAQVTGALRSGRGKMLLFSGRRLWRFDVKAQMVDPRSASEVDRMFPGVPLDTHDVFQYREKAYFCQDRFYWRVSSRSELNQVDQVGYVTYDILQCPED
- Test Description: Inhibition of human recombinant MMP9 expressed in Escherichia coli using (5-FAM/QXLTM) FRET peptide as substrate
pIC50: −log10 of the molar value.
Endpoint: pIC50

Prompt: Determine its reported pIC50: `O=C(/C=C/c1ccc(C(F)(F)F)cc1)NO`
Response: < 4.00

###

- System: Matrix metalloproteinase-14 (Homo sapiens, UniProt P50281)
- Test Description: Inhibition of human recombinant MMP14 expressed in Escherichia coli using (5-FAM/QXLTM) FRET peptide as substrate
pIC50: −log10 of the molar value.
Endpoint: pIC50

Prompt: Determine its reported pIC50: `O=C(/C=C/c1ccc(C(F)(F)F)cc1)NO`
Response: < 4.00

Where these numbers come from: ChEMBL document CHEMBL3751715
